- SYSTEM TESTED: CDK2/Cyclin E complex (UniProt P24941 1-298; P24864 1-410)
- RUN DESCRIPTION: cell-based or functional assay
Ends that are not written are not given here.
Form field: IC50, cyclin E/CDK2 kinase, GST-pRb (one value per entry).
MEASUREMENT TYPE: IC50, cyclin E/CDK2 kinase, GST-pRb (µM)

>>> value_measured("FYHSKRRLIFS-NH2 [FYHSKRRLIFS-NH2]")
6.8
>>> value_measured("YHSKRRLIF-NH2 [p21 (151-159) YHSKRRLIF-NH2]")
7
>>> value_measured("H-KRRLIF-NH2 [H-Lys-Arg-Arg-Leu-Ile-Phe-NH2]")
1.1
>>> value_measured("DFYHSKRRLIF-NH2 [p21 (149-159) DFYHSKRRLIF-NH2]")
2
